B1: S100A14 (parent)
chain: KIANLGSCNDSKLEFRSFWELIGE

# Variants of: B1
# protocol-notes: protein stability index of a GFP-peptide fusion (GPS, HEK-293T) (PSI 1-6); higher = more stable;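 note: lentivirally expressed fusions sorted by FACS into six bins by GFP to DsRed ratio, PSI derived from sequencing read proportions per bin multiplied by bin number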
# condition-label: c terminus: a fixed tail appended
recorded-metric: protein stability index

biopolymer_sequence="AIANLGSCNDSKLEFRSFWELIGE [K1A]" obs_value=1.98
biopolymer_sequence="KIANLGSCNDSKLEFRSFWELIGP [E24P]" obs_value=1.7
biopolymer_sequence="KIANLGSCNDSKLEQRSFWELIGE [F15Q]" obs_value=2.25
biopolymer_sequence="KIANLGSCRDSKLEFRSFWELIGE [N9R]" obs_value=1.47
biopolymer_sequence="KWANLGSCNDSKLEFRSFWELIGE [I2W]" obs_value=1.88
biopolymer_sequence="KIANLGSCNDSKLEMRSFWELIGE [F15M]" obs_value=2.25
biopolymer_sequence="KIANGGSCNDSKLEFRSFWELIGE [L5G]" obs_value=1.72
biopolymer_sequence="QIANLGSCNDSKLEFRSFWELIGE [K1Q]" obs_value=2.02
biopolymer_sequence="KIANLGSCNDSKLEFRSFWELPGE [I22P]" obs_value=2.29
biopolymer_sequence="KIANLGSCNDSKLEFRSFCELIGE [W19C]" obs_value=1.46
biopolymer_sequence="KIANLGSNNDSKLEFRSFWELIGE [C8N]" obs_value=1.68
biopolymer_sequence="KIANLGSCNDQKLEFRSFWELIGE [S11Q]" obs_value=2.08
biopolymer_sequence="KIANLGSCNDSDLEFRSFWELIGE [K12D]" obs_value=2.24
biopolymer_sequence="KIANLGSCNDSKLESRSFWELIGE [F15S]" obs_value=2.04
biopolymer_sequence="KIANLGSCNDSKLEFRSFWELIGH [E24H]" obs_value=2.8
biopolymer_sequence="KIANLGSCNDSQLEFRSFWELIGE [K12Q]" obs_value=1.26
biopolymer_sequence="KIANLGQCNDSKLEFRSFWELIGE [S7Q]" obs_value=1.68
biopolymer_sequence="KIANLGSCNDSKLEFRSFWMLIGE [E20M]" obs_value=3.34
biopolymer_sequence="DIANLGSCNDSKLEFRSFWELIGE [K1D]" obs_value=1.86
biopolymer_sequence="KIANLGSCNDSKLEFRSFWTLIGE [E20T]" obs_value=1.59
biopolymer_sequence="KIANLGSCNDSKLEFRSFWELLGE [I22L]" obs_value=1.94
biopolymer_sequence="KIANLGSCNDSKLEFVSFWELIGE [R16V]" obs_value=2.3
biopolymer_sequence="KIANLGSGNDSKLEFRSFWELIGE [C8G]" obs_value=2.24
biopolymer_sequence="KIANLGSCNDSSLEFRSFWELIGE [K12S]" obs_value=1.96
biopolymer_sequence="KIANLGSCNDSLLEFRSFWELIGE [K12L]" obs_value=1.72
biopolymer_sequence="KIANLGSCNDSKLEFRSFWELIGL [E24L]" obs_value=1.05
biopolymer_sequence="KIANKGSCNDSKLEFRSFWELIGE [L5K]" obs_value=2.89
biopolymer_sequence="KIANLGWCNDSKLEFRSFWELIGE [S7W]" obs_value=1.89
